B1: CPEB3 Ribozyme (parent)
chain: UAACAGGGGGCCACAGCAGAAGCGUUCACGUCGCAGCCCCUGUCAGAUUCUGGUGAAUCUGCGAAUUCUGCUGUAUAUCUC

variants of: B1; experiment: self-cleavage, relative activity (ratio to wild type); higher = more cleavage; in vitro, sequencing
Returns one of 1 or 0; 1 when self-cleavage is >= 0.3.

- SEQUENCE CHANGE: "U54A C81U"
  LABEL VALUE: 1
- SEQUENCE CHANGE: "A5G C32G"
  LABEL VALUE: 1
- SEQUENCE CHANGE: "U54A A75U"
  LABEL VALUE: 1
- SEQUENCE CHANGE: "G8A U69G"
  LABEL VALUE: 0

Q) Determine whether this variant has self-cleavage no lower than 0.3: G36U A77U
A) 0

Q) Determine whether this variant has self-cleavage no lower than 0.3: A3U G63U
A) 1
